Target: T1, DDX21ΔNC (human, UniProt Q9NR30 186-710)
T1 sequence: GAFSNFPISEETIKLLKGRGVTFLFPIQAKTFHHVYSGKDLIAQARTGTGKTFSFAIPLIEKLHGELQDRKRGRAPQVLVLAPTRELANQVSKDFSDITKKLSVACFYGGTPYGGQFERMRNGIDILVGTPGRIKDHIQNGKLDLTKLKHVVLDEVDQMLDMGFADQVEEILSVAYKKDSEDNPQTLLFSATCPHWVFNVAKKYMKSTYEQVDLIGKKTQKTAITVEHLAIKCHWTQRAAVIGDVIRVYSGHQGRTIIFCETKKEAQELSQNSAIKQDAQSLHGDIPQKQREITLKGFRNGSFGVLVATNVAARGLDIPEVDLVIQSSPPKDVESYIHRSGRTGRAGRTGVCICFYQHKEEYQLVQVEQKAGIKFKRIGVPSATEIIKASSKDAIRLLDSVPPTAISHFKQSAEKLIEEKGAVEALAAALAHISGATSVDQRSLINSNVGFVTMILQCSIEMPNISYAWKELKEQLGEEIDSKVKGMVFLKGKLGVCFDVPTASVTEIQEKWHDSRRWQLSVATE
Test: fluorescence polarization; FP: 50 mM Tris pH 7.5, 50 mM KCl, 5 mM MgCl2, no ATP; Hill-slope fit; temperature not given in the material
Conditions: protein: recombinant; chain copies: 2; label: 5'-FAM on 15-mer; 3' overhang 15 nt
measuredParameter: Kd

## Input Request the reported Kd associated with dsRNA 15/30mer 3' overhang (dsRNA) RNA 1: GUUUCGGAUCGACGC RNA 2: GCGUCGAUCCGAAACUAUACUUAAUUUUAA
## Output 217 nM
